Catalogue of variants with associated self-cleavage kobs at 10000 uM GlcN6P
B1: glmS ribozyme (parent)
chain: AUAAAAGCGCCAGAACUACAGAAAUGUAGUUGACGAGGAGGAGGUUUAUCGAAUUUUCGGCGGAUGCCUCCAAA

Variants of: B1
Test: self-cleavage kobs at 10000 uM GlcN6P; higher = faster cleavage; RNA array
Settings: with glucosamine-6-phosphate
Variants at the floor of the assay were thinned out.

var	comparison_sign	self-cleavage kobs at 10000 uM GlcN6P [s⁻¹]
A6G C16G	=	3.38e-05
A12U A52G	=	0.00785
G32A C58G	=	0.000129
A15C G29U	=	0.00285
G7U U55G	<	1e-05
A33C A39C	=	3.54e-05
U47C C61G C71U	<	1e-05
G29U G40A U45A	=	0.000439
C10G U47G G60C	=	0.0011
A33C G44U	<	1e-05
C11A A53U U57G C71A	=	9.23e-05
